Test: in vivo
Conditions: Sprague-Dawley, rat
Measure name: concentration at 6 hr (ng/g)
One number for each entry, in ng/g.

Form field concentration at 6 hr, entry COc1cccc2c1C(=O)c1c(O)c3c(c(O)c1C2=O)C[C@@](O)(C(=O)CO)C[C@@H]3O[C@H]1C[C@H](N)[C@@H](O)[C@H](C)O1 [epirubicin] : 21700

src = patent US20120095325A1
